The values you see were collected from ChEMBL document CHEMBL5325414.

- target-of-assay: Amyloid-beta precursor protein (Homo sapiens, UniProt P05067)
- Sequence (P05067 whole entry): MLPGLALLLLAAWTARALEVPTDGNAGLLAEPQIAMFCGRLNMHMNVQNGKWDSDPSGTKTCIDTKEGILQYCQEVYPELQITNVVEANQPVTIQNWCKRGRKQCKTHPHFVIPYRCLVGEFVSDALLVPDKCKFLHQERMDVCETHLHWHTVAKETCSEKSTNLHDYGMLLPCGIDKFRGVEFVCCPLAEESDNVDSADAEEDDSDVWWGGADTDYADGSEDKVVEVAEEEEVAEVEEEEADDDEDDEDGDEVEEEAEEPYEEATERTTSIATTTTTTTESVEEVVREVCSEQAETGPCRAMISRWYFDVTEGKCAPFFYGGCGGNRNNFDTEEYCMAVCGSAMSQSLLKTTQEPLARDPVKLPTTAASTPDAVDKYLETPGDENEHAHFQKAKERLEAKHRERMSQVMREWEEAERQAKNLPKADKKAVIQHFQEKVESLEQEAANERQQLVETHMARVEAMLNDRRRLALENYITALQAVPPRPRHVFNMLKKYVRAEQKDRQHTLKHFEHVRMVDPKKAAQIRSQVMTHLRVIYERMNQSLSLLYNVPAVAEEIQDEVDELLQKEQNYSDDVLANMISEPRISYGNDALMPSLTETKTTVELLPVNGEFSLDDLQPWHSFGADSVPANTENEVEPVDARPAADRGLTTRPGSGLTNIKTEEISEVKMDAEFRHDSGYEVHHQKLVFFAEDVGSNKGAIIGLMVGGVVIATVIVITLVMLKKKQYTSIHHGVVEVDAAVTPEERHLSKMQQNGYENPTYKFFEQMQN
- protocol-summary: Inhibition of Cu2+ induced of amyloid beta (1 to 42) aggregation (unknown origin)
observable: IC50 (µM)
Answers are plain numbers, in µM.

Sample O=c1ccoc(/C=C/c2ccc(O)c(O)c2)c1O — what was its IC50?
3.69

###

- protocol-summary: MRT(0 to t) in Sprague-Dawley rat at 15 mg/kg, IG
- Format: ADME, organism-based
- test-conditions: in vivo, po
observable: MRT last (h)
Numbers only, in h.

Sample O=c1ccoc(/C=C/c2ccc(O)c(O)c2)c1O — what was its MRT last?
6.36

###

- protocol-summary: Half life in Sprague-Dawley rat at 15 mg/kg, IG
- Assay type: ADME, organism-based
- test-conditions: in vivo, po
observable: half-life (h)
Give bare numbers, in h.

Sample O=c1ccoc(/C=C/c2ccc(O)c(O)c2)c1O — what was its half-life?
14
